- PROTOCOL_DESCRIPTION: In vivo testing, Max. ΔIOP, Max. hyperemia
- RECORDED_CONDITIONS: Conc. 0.01 g/100 mL
Measured Max. hyperemia of individual entries
Answer field: number only, no words.

Solved cases below.
[[record]]
compound = "CCCCC[C@H](O)c1ccc(C2=CCC[C@@H]2CCCc2ccc(C(=O)O)s2)cc1 [Compound 6]"
value_observed = 2.0

[[record]]
compound = "CCCCCC(O)c1ccc(C2=C(C#N)CC[C@@H]2CCCc2ccc(C(=O)OCCO)s2)cc1 (stereo partly shown) [Compound 5]"
value_observed = 1.9

[[record]]
compound = "CCCCCC(O)c1ccc(C2=C(Cl)CC[C@@H]2CCCc2ccc(C(=O)O)s2)cc1 (stereo partly shown) [Compound 1]"
value_observed = 1.7


q: Please report the recorded Max. hyperemia for CCCCC[C@@H](O)c1ccc(C2=CCC[C@@H]2CCCc2ccc(C(=O)O)s2)cc1 [Compound 7] .
a: 1.8

###

- ASSAY_TARGET: EP2 (Homo sapiens)
- Sequence (P43116 whole entry): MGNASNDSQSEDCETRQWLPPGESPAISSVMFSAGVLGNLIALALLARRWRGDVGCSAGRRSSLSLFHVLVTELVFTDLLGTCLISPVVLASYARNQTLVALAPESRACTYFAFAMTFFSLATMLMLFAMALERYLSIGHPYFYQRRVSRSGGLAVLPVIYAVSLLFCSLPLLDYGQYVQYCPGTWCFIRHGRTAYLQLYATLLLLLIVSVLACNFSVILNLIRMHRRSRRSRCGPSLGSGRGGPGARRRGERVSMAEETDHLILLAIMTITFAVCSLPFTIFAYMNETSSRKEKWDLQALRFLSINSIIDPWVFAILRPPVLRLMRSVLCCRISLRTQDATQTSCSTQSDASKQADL
Measured pKi of individual entries
Note: pKi values are expressed as the negative base-10 logarithm of concentration in M.

Solved cases below.
[[record]]
compound = "CCCCC[C@@H](O)c1ccc(C2=CCC[C@@H]2CCCc2ccc(C(=O)O)s2)cc1 [drawing 87]"
value_observed = 8.00

[[record]]
compound = "CCCCCC(O)c1ccc(C2=C(C#N)CC[C@@H]2CCCc2ccc(C(=O)O)s2)cc1 (single isomer, unassigned) [drawing 84]"
value_observed = 8.30

[[record]]
compound = "CCCCCC(O)c1ccc(C2=C(F)CC[C@@H]2CCCc2ccc(C(=O)O)s2)cc1 (stereo partly drawn)"
value_observed = 8.62


q: Request: pKi, test system EP2 (Homo sapiens), entry CCCCCC(O)c1ccc(C2C(Br)=CC[C@@H]2CCCc2ccc(C(=O)O)s2)cc1 (stereo partly drawn) [drawing 83]
a: 8.30

q: Request: pKi, test system EP2 (Homo sapiens), entry CCCCCC(O)c1ccc(C2=C(CO)CC[C@@H]2CCCc2ccc(C(=O)O)s2)cc1 (stereo partly drawn) [drawing 81]
a: 7.28

q: Request: pKi, test system EP2 (Homo sapiens), entry CCCCCC(O)c1ccc(C2=C(C)CC[C@@H]2CCCc2ccc(C(=O)O)s2)cc1 (stereo partly drawn) [drawing 88]
a: 7.80

###

- ASSAY_TARGET: EP4 (Homo sapiens, UniProt P35408)
- Sequence (P35408 whole entry): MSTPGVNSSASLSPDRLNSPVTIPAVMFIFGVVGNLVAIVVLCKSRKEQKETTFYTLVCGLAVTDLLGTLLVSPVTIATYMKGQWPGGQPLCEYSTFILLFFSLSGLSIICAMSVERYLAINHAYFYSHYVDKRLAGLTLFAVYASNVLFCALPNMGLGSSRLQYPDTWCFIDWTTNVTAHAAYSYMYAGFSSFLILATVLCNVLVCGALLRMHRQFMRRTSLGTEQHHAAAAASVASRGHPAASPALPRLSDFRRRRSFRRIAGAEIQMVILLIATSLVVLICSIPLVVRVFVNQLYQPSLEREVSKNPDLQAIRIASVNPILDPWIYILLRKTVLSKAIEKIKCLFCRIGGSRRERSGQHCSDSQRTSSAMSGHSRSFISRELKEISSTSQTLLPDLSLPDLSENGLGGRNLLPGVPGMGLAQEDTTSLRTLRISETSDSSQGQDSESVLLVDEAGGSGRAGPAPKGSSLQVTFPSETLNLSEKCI
- PROTOCOL_DESCRIPTION: EP4 Ca2+ EC50 (in vitro testing)
READOUT_NAME: EC50

[[record]]
compound = "CCCCCC(O)c1ccc(C2=C(C#N)CC[C@@H]2CCCc2ccc(C(=O)O)s2)cc1 (single isomer, unassigned) [drawing 84]"
value_observed = "2.8 µM"

[[record]]
compound = "CCCCC[C@H](O)c1ccc(C2=C(Cl)CC[C@@H]2CCCc2ccc(C(=O)O)s2)cc1"
value_observed = "> 10 µM"

[[record]]
compound = "CCCCC[C@@H](O)c1ccc(C2=C(Cl)CC[C@@H]2CCCc2ccc(C(=O)O)s2)cc1"
value_observed = "> 10 µM"


q: Please report the recorded EC50 for CCCCCC(O)c1ccc(C2=C(Br)CC[C@@H]2CCCc2ccc(C(=O)O)s2)cc1 (some centres unmarked) [drawing 79] .
a: > 10 µM

q: Please report the recorded EC50 for CCCCCC(O)c1ccc(C2=C(CO)CC[C@@H]2CCCc2ccc(C(=O)O)s2)cc1 (some centres unmarked) [drawing 81] .
a: > 10 µM

q: Please report the recorded EC50 for CCCCCC(O)c1ccc(C2C(Br)=CC[C@@H]2CCCc2ccc(C(=O)O)s2)cc1 (some centres unmarked) [drawing 83] .
a: > 10 µM

q: Please report the recorded EC50 for CCCCCC(O)c1ccc(C2=C(C#N)CC[C@@H]2CCCc2ccc(C(=O)O)s2)cc1 (single isomer, unassigned) [drawing 85] .
a: 3.35 µM

q: Please report the recorded EC50 for CCCCCC(O)c1ccc(C2=C(O)C(=O)C[C@@H]2C/C=C\CCCC(=O)O)cc1 (some centres unmarked) [drawing 82] .
a: > 10 µM

q: Please report the recorded EC50 for CCCCCC(O)c1ccc(C2=CCC[C@@H]2CCCc2ccc(C(=O)O)s2)cc1 (some centres unmarked) .
a: > 10 µM

q: Please report the recorded EC50 for CCCCCC(O)c1ccc(C2=C(F)CC[C@@H]2CCCc2ccc(C(=O)O)s2)cc1 (some centres unmarked) .
a: 2.96 µM

q: Please report the recorded EC50 for CCCCCC(O)c1ccc(C2=C(C)CC[C@@H]2CCCc2ccc(C(=O)O)s2)cc1 (some centres unmarked) [drawing 88] .
a: 0.955 µM

###

Measured EC50 of individual entries
- ASSAY_TARGET: EP2 (Homo sapiens)
- PROTOCOL_DESCRIPTION: EP2 Ca2+ EC50 (in vitro testing)
- Type: cell-based
- Excerpt: U.S. patent application Ser. No. 11/553,143, filed on Oct. 26, 2006, describes the methods used to obtain the in vitro data in the tables below.
Answer in nM, number only, no unit symbol.

Solved cases below.
[[record]]
compound = "CCCCCC(O)c1ccc(C2=C(Br)CC[C@@H]2CCCc2ccc(C(=O)O)s2)cc1 (some centres unmarked) [drawing 79]"
assay_target = "EP2 (Homo sapiens)"
readout_unit = "nM"
value_observed = 403

[[record]]
compound = "CCCCC[C@H](O)c1ccc(C2=C(Cl)CC[C@@H]2CCCc2ccc(C(=O)O)s2)cc1"
assay_target = "EP2 (Homo sapiens)"
readout_unit = "nM"
value_observed = 355

[[record]]
compound = "CCCCCC(O)c1ccc(C2C(Br)=CC[C@@H]2CCCc2ccc(C(=O)O)s2)cc1 (some centres unmarked) [drawing 83]"
assay_target = "EP2 (Homo sapiens)"
readout_unit = "nM"
value_observed = 847


Query compound follows.
q: Please report the recorded EC50 for CCCCCC(O)c1ccc(C2=C(CO)CC[C@@H]2CCCc2ccc(C(=O)O)s2)cc1 (some centres unmarked) [drawing 81] .
a: 119

###

Measured EC50 of individual entries
- ASSAY_TARGET: EP3 (Homo sapiens)
- Sequence (P43115 whole entry): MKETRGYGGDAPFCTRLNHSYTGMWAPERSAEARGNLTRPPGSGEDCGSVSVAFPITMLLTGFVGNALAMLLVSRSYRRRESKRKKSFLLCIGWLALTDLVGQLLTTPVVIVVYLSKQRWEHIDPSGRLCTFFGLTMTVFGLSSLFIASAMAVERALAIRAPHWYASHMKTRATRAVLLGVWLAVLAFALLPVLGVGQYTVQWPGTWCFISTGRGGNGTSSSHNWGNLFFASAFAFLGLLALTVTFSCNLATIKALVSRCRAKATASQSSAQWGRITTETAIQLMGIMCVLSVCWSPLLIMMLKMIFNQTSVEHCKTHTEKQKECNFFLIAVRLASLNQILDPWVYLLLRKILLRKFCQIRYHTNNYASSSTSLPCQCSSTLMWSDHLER
- PROTOCOL_DESCRIPTION: Other receptors Ca2+ EC50: EP3
- Type: cell-based
- RECORDED_CONDITIONS: NA not defined in the patent
Answer in nM, number only, no unit symbol.

q: Request: EC50, test system EP3 (Homo sapiens), entry CCCCCC(O)c1ccc(C2=C(F)CC[C@@H]2CCCc2ccc(C(=O)O)s2)cc1 (stereo partly shown)
a: 1820

q: Request: EC50, test system EP3 (Homo sapiens), entry CCCCC[C@H](O)c1ccc(C2=CCC[C@@H]2CCCc2ccc(C(=O)O)s2)cc1 [drawing 86]
a: 3090

q: Request: EC50, test system EP3 (Homo sapiens), entry CCCCCC(O)c1ccc(C2=C(CO)CC[C@@H]2CCCc2ccc(C(=O)O)s2)cc1 (stereo partly shown) [drawing 81]
a: 6980

q: Request: EC50, test system EP3 (Homo sapiens), entry CCCCCC(O)c1ccc(C2=C(C#N)CC[C@@H]2CCCc2ccc(C(=O)O)s2)cc1 (single isomer, unassigned) [drawing 85]
a: 202

###

pKi tested on UniProtKB P35408: recorded values
Note: pKi values are expressed as the negative base-10 logarithm of concentration in M.

[[record]]
compound = "CCCCCC(O)c1ccc(C2=C(O)C(=O)C[C@@H]2C/C=C\\CCCC(=O)O)cc1 (some centres unmarked) [drawing 82]"
readout_name = "pKi"
value_observed = 6.11

[[record]]
compound = "CCCCCC(O)c1ccc(C2=C(CO)CC[C@@H]2CCCc2ccc(C(=O)O)s2)cc1 (some centres unmarked) [drawing 81]"
readout_name = "pKi"
value_observed = 5.81

[[record]]
compound = "CCCCCC(O)c1ccc(C2=C(Br)CC[C@@H]2CCCc2ccc(C(=O)O)s2)cc1 (some centres unmarked) [drawing 79]"
readout_name = "pKi"
value_observed = 6.02

[[record]]
compound = "CCCCCC(O)c1ccc(C2=C(C#N)CC[C@@H]2CCCc2ccc(C(=O)O)s2)cc1 (single isomer, unassigned) [drawing 85]"
readout_name = "pKi"
value_observed = 4.79

[[record]]
compound = "CCCCCC(O)c1ccc(C2C(Br)=CC[C@@H]2CCCc2ccc(C(=O)O)s2)cc1 (some centres unmarked) [drawing 83]"
readout_name = "pKi"
value_observed = 6.28


q: Request: pKi, test system UniProtKB P35408, entry CCCCCC(O)c1ccc(C2=C(C#N)CC[C@@H]2CCCc2ccc(C(=O)O)s2)cc1 (some centres unmarked)
a: 6.76

q: Request: pKi, test system UniProtKB P35408, entry CCCCC[C@@H](O)c1ccc(C2=CCC[C@@H]2CCCc2ccc(C(=O)O)s2)cc1 [drawing 87]
a: 4.79

q: Request: pKi, test system UniProtKB P35408, entry CCCCCC(O)c1ccc(C2=CCC[C@@H]2CCCc2ccc(C(=O)O)s2)cc1 (some centres unmarked)
a: 5.93

q: Request: pKi, test system UniProtKB P35408, entry `CCCCC[C@@H](O)c1ccc(C2=C(Cl)CC[C@@H]2CCCc2ccc(C(=O)O)s2)cc1`
a: 6.04

src = patent US9796696B2
